test system: 186277-243-T-J2-PDC complex spheroid viability; test: Anticancer human tumor 186277-243-T-J2-PDC patient-derived colon adenocarcinoma cell line growth inhibition [GQUAD]; settings: curve of first compound; second compound 0.1 µM
pIC50: −log10 of the molar value.
Recorded measurements of pIC50, one per entry
propertyName: pIC50

>>> reportedmeasurement("COc1cccc2c1C(=O)c1c(O)c3c(c(O)c1C2=O)CC(O)(C(=O)CO)CC3OC1CC(N)C(O)C(C)O1 (stereo not given) + Cc1cnc(CNC(=O)c2c(=O)c3ccc(N4CCCN(C)CC4)nc3n3c2sc2ccccc23)cn1")
6.20
>>> reportedmeasurement("CC1COCCN1c1cc(C2(S(C)(=N)=O)CC2)nc(-c2ccnc3[nH]ccc23)n1 (stereo not given) + Cc1cnc(CNC(=O)c2c(=O)c3ccc(N4CCCN(C)CC4)nc3n3c2sc2ccccc23)cn1")
6.24
>>> reportedmeasurement("CCCS(=O)(=O)Nc1ccc(F)c(C(=O)c2c[nH]c3ncc(-c4ccc(Cl)cc4)cc23)c1F + Cc1cnc(CNC(=O)c2c(=O)c3ccc(N4CCCN(C)CC4)nc3n3c2sc2ccccc23)cn1")
5.31
>>> reportedmeasurement("COc1ccc([C@@H](O)c2cc(-c3ncnc4cc(N5CCOCC5)ccc34)c(F)cc2Cl)nn1 + Cc1cnc(CNC(=O)c2c(=O)c3ccc(N4CCCN(C)CC4)nc3n3c2sc2ccccc23)cn1")
5.86

* * *

Listing of entries alongside the reported pIC50.
test system: 186277-243-T-J2-PDC complex spheroid viability; test: Anticancer human tumor 186277-243-T-J2-PDC cell line growth inhibition [GQUAD]; settings: curve of first compound; second compound 1 µM;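 note: spheroids exposed to drugs for 7 days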
pIC50: −log10 of the molar value.
propertyName: pIC50

>>> reportedmeasurement("CC1COCCN1c1cc(-c2ccnn2C)c2ccnc(-c3ccn[nH]3)c2n1 (stereo unspecified) + Cc1[nH]c2ccc(F)cc2c1-c1nc2c3cccnc3c3ncccc3c2[nH]1")
"> 7.50"
>>> reportedmeasurement("COc1ncnc(C2CC2)c1-c1ncc2cnn(Cc3ccc(-c4nc(C(F)(F)F)cn4C(C)C)cc3)c2n1 + Cc1cnc(CNC(=O)c2c(=O)c3ccc(N4CCCN(C)CC4)nc3n3c2sc2ccccc23)cn1")
"> 7.50"
>>> reportedmeasurement("COc1cc(C2c3cc4c(cc3C(OC3OC5COC(C)OC5C(O)C3O)C3COC(=O)C23)OCO4)cc(OC)c1O (stereo unspecified) + CN(C)c1ccc(Nc2c3ccc(NC(=O)CCN4CCCC4)cc3nc3cc(NC(=O)CCN4CCCC4)ccc23)cc1")
6.09
>>> reportedmeasurement("CC(C)n1c(=O)n(C)c2cnc3cc(F)c(-c4ccc(OCCCN5CCCCC5)nc4)cc3c21 + Cc1[nH]c2ccc(F)cc2c1-c1nc2c3cccnc3c3ncccc3c2[nH]1")
"< 5.00"
>>> reportedmeasurement("Cc1cccc(N(C)C(=O)C2C(O)CCN2c2nc(C)cc(C(F)(F)F)c2C#N)c1 (stereo unspecified) + Cc1cnc(CNC(=O)c2c(=O)c3ccc(N4CCCN(C)CC4)nc3n3c2sc2ccccc23)cn1")
"< 5.00"
>>> reportedmeasurement("COc1cccc2c1C(=O)c1c(O)c3c(c(O)c1C2=O)CC(O)(C(=O)CO)CC3OC1CC(N)C(O)C(C)O1 (stereo unspecified) + Cc1cnc(CNC(=O)c2c(=O)c3ccc(N4CCCN(C)CC4)nc3n3c2sc2ccccc23)cn1")
"> 7.50"
>>> reportedmeasurement("CC[C@@]1(O)C(=O)OCc2c1cc1n(c2=O)Cc2cc3c(CN(C)C)c(O)ccc3nc2-1 + Cc1cnc(CNC(=O)c2c(=O)c3ccc(N4CCCN(C)CC4)nc3n3c2sc2ccccc23)cn1")
"> 9.00"
>>> reportedmeasurement("O=c1[nH]cc(F)c(=O)[nH]1 + Cc1[nH]c2ccc(F)cc2c1-c1nc2c3cccnc3c3ncccc3c2[nH]1")
"< 5.00"
>>> reportedmeasurement("O=C(NO)c1cnc(N2CCN(S(=O)(=O)c3ccc4ccccc4c3)CC2)nc1 + CN(C)c1ccc(Nc2c3ccc(NC(=O)CCN4CCCC4)cc3nc3cc(NC(=O)CCN4CCCC4)ccc23)cc1")
6.75
>>> reportedmeasurement("COc1cc(C2c3cc4c(cc3C(OC3OC5COC(C)OC5C(O)C3O)C3COC(=O)C23)OCO4)cc(OC)c1O (stereo unspecified) + Cc1cnc(CNC(=O)c2c(=O)c3ccc(N4CCCN(C)CC4)nc3n3c2sc2ccccc23)cn1")
"> 7.50"
>>> reportedmeasurement("CC(C)(O)C1CCC(Nc2ccc3ncc(-c4cccc(C(F)(F)F)c4)n3n2)CC1 (stereo unspecified) + Cc1[nH]c2ccc(F)cc2c1-c1nc2c3cccnc3c3ncccc3c2[nH]1")
5.56
